Data origin, for the record: patent US11897880B2

- Test system: Factor XIa (Homo sapiens, UniProt P03951)
- Sequence (P03951 388-625 limits assumed): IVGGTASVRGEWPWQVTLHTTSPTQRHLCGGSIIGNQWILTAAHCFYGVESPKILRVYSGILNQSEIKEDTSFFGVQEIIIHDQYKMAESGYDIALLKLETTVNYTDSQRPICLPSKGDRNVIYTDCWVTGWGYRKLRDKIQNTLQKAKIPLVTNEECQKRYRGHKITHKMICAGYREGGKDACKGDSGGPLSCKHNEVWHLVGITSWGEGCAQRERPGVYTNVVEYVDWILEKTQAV
- Sequence (P03951 19-387 partner limits assumed): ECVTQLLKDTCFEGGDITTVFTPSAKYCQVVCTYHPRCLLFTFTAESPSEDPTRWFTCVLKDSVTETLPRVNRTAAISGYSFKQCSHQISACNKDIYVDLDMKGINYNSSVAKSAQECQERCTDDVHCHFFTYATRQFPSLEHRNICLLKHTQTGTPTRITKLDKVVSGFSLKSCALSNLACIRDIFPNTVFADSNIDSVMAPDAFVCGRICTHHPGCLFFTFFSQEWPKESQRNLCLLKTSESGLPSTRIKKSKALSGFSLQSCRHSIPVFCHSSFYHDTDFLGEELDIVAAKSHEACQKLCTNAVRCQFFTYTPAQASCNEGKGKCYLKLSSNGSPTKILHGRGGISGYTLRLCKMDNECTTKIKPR
- Protocol: Factor XIa inhibition assay utilizing a fluorophore-quencher pair peptide substrate (FLINT)
- Type: biochemical
- Condition context: 30 min preincubation, 5Fam-KLTRAETV-K5Tamra substrate 15 μM final, kinetic reads; read-out: FXIa IC50
Flag rule - IC50 less than 10 nM flags Criterion met; the remaining entries get Criterion not met.

# Compound, Discrete label
records = [
    ("Nc1ccc(-c2cnc([C@H]3CCc4c5c(cc(=O)n43)-c3c(ccc(Cl)c3F)CC3(CC3)NC5=O)[nH]2)c(F)n1 (stereo in doubt)", "Criterion not met"),
    ("CC1(C)Cc2ccc(Cl)c(F)c2-c2cc(=O)n3c(c2C(=O)N1)CC[C@H]3c1ncc(-c2ccc(N)nc2F)[nH]1 (single isomer, unassigned)", "Criterion met"),
    ("O=C1NC2(CC2)Cc2ccc(Cl)c(F)c2-c2cc(=O)n3c(c21)CC[C@@H]3c1ncc(-c2ccn3cnnc3c2)[nH]1 (stereo in doubt)", "Criterion not met"),
    ("Nc1ccc(-c2cnc([C@H]3CCc4c5c(cc(=O)n43)-c3c(ccc(Cl)c3F)CCNC5=O)[nH]2)c(Cl)n1 (stereo in doubt)", "Criterion met"),
    ("CN1C(=O)c2c(cc(=O)n3c2CC[C@H]3c2ncc(-c3ccc(N)nc3F)[nH]2)-c2c(ccc(Cl)c2F)CC12CC2 (stereo in doubt)", "Criterion met"),
    ("Nc1ccc(-c2cnc(C3CCc4c5c(cc(=O)n43)-c3c(ccc(Cl)c3F)-c3ccccc3NC5=O)[nH]2)c(F)n1 (single isomer, unassigned)", "Criterion not met"),
]
